All figures here come from ChEMBL document CHEMBL1126167.

- PROTOCOL SUMMARY: Photolysis at 264 nm in phosphate buffer
- Type: ADME
- Design: dose or concentration left out as unconfirmed
EXPERIMENTAL ENDPOINT: half-life (min)

- COMPOUND: "[3H]C(O)(Cn1ccnc1)c1ccc(N=[N+]=[N-])cc1 (stereo unspecified)"
  UNIT OF MEASURE: "min"
  OBSERVED VALUE: 2.5

* * *

- System: P45014DM
- PROTOCOL SUMMARY: Photolysis after effective incorporation into P45014DM at 313 nm in phosphate buffer
- Type: ADME
- Set-up: dose or concentration left out as unconfirmed
- COND: compound incorporated into P45014DM
EXPERIMENTAL ENDPOINT: half-life (min)

- COMPOUND: "[3H]C(O)(Cn1ccnc1)c1ccc(N=[N+]=[N-])cc1 (stereo unspecified)"
  ASSAY SYSTEM: "P45014DM"
  OBSERVED VALUE: 45
